Origin of values: PubChem BioAssay (NCI)

assay procedure: NCI Yeast Anticancer Drug Screen. Data for the rad50 strain (AID 155);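 also: 0% = growth of vehicle-only cultures of the same strain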
condition context: S. cerevisiae rad50 strain growth inhibition; at 11.0 µM
The panel holds about 79,000 compounds, 15% with a hit somewhere; the sample as a whole holds those more often. Calls of active or inactive are those of the source. Rule as the data show it: active = growth inhibition above about 70%; inactive = the rest.
Labels: 1.0 = active, 0.0 = inactive

molecule	group
COc1cc(NCc2ccc3nc(N)nc(N)c3c2C)cc(OC)c1OC	0.0
C=C1N(C)c2ccc(Cl)cc2C1(C)C	0.0
COc1ccc(/C(C#N)=C/c2ccc(OC)c(OC)c2)cc1	0.0
O=C(/C=N/O)Nc1cc(Cl)c(Cl)cc1Cl	0.0
O=[N+]([O-])/C(C(Cl)=C(Cl)Cl)=C1/OCCS1	1.0
O=C1C=CC(=O)N1c1ccc(I)cc1	1.0
CC1C(C#N)(C#N)C(C#N)=C(N)C1(Cl)[N+](=O)[O-] (configuration not stated)	0.0
C/C=C/[P+](c1ccccc1)(c1ccccc1)c1ccccc1	1.0
CCn1ncc(N=O)c1N	0.0
Cn1c2nc3ccccc3c-2nc2ccccc21	1.0
O=C(/C=C/c1cccc2ccccc12)c1ccc(Cl)cc1	0.0
Cc1cc(C)c(N2C(=O)CC(Sc3ccccc3N)C2=O)c(C)c1 (configuration not stated)	0.0
O=Nn1c2ccccc2c2cc([N+](=O)[O-])ccc21	0.0
CCN(CC)N=Nc1c(C(N)=O)n[nH]c1C	0.0
CC1OC(OC2CCCc3c(O)c4c(c(O)c32)C(=O)c2ccccc2C4=O)CC(N)C1O (configuration not stated)	1.0
C=C(CCCO)[C@@H]1CC[C@@](C)(O)[C@H]1C	0.0
CCN1/C(=C/c2ccc3ccccc3[n+]2CC)C=Cc2ccccc21	1.0
Cc1cc(Cl)nc2nc(Cl)c(N)cc12	0.0
OCCNCCOc1ccc(/C(=C(/Cl)c2ccccc2)c2ccccc2)cc1	0.0
O=[N+]([O-])c1c(/C=N/Nc2ccccc2)oc(-c2ccc3c(c2)OCO3)c1-c1ccc2c(c1)OCO2	0.0
CC(=O)OCC1OC(O[C@H]2C=C[C@@H](C(=O)OCc3ccccc3)n3c(=O)n(-c4ccccc4)c(=O)n32)C(OC(C)=O)C(OC(C)=O)C1OC(C)=O (some centres not stated)	0.0
Cc1onc(-c2ccccc2Cl)c1C1=N/C(=C/c2cc(Cl)cc(Cl)c2O)C(=O)O1	0.0
CC(=O)O[C@H]1C(=O)[C@@]2(C)[C@H]([C@H](OC(=O)c3ccccc3)[C@]3(O)C[C@H](OC(=O)[C@H](O)[C@@H](NC(=O)c4ccccc4)c4ccccc4)C(C)=C1C3(C)C)[C@]1(OC(C)=O)CO[C@@H]1C[C@@H]2O	0.0
CC1=CCC(C(C)(C)c2ccc(O)cc2)CC1 (configuration not stated)	0.0
COc1ccc(/C=C(\NC(=O)c2ccccc2)C(=O)NN(C)c2ccnc3cc(Cl)ccc23)cc1OC	0.0
COc1ccc2oc(-c3ccc(Cl)cc3)c(N3CCN(C)CC3)c2c1	1.0
COC(=O)c1oc([N+](=O)[O-])c(Cl)c1Cl	1.0
CN(NC(=O)/C(=C/c1ccc(O)cc1)NC(=O)c1ccccc1)c1ccnc2cc(Cl)ccc12	0.0
CC1=CCCC2C1(C)CCC(C)C2(C)Cc1cc(O)ccc1O (configuration not stated)	0.0
N#C/C(=C/c1c(Cl)cccc1Cl)C(N)=O	0.0
O=Nc1ccc(Nc2ccccc2)cc1	0.0
CCOC(=O)CNC(=O)c1[nH]cnc1/N=N/N(C)C	0.0
CCCCCCCCCCCCCCCCCCNC(=S)/N=C\C1=C(O)c2ccccc2C1=O	0.0
O=C(/C=C\c1ccc([N+](=O)[O-])o1)Nc1ccc(Cl)cc1	1.0
COc1cccc(C(c2cc3c(cc2O)OCO3)N2CCOCC2)c1OC (configuration not stated)	0.0
O=C1C=CC(=O)N1c1ccc(N2C(=O)C=CC2=O)cc1	1.0
O=C1OC2C(O)COC2(OCc2c[nH]c3ccccc23)C1O (configuration not stated) (tested in a mixture with another compound)	0.0
